Target: CRAC channel (Homo sapiens (Human))
Assay: GFP-NFAT translocation-based high-content screening (TG-stimulated HeLa cells stably expressing GFP-NFAT)
Assay type: cell-based
Conditions: Table 2; unit inferred; read-out: IC50 of the compounds (inhibitory activity on CRAC channel)
pIC50: −log10 of the molar value.

[
  {
    "Molecule": "CN/C(=N/c1cc(Cl)ccc1Cl)SC1CC(=O)N(c2ccc(C(=O)OC)cc2)C1=O (stereo not shown) [Compound 65]",
    "Qualifier Sign": "=",
    "pIC50": 4.51
  },
  {
    "Molecule": "NS(=O)(=O)c1ccc(CCN/C(=N\\c2ccccc2)SC2CC(=O)N(c3ccccc3)C2=O)cc1 (stereo not shown) [Compound 96]",
    "Qualifier Sign": "=",
    "pIC50": 4.96
  },
  {
    "Molecule": "CNC(=O)c1ccc(N2C(=O)CC(S/C(=N/c3ccccc3)NC3CC3)C2=O)cc1 (stereo not shown) [Compound 94]",
    "Qualifier Sign": "<",
    "pIC50": 3.70
  },
  {
    "Molecule": "COc1ccc(N2C(=O)CC(Br)C2=O)cc1 (stereo not shown) [Compound 120]",
    "Qualifier Sign": "<",
    "pIC50": 3.70
  }
]

----------
Target: CRAC channel (Homo sapiens (Human), UniProt Q96D31)
Sequence (Q96D31 whole entry): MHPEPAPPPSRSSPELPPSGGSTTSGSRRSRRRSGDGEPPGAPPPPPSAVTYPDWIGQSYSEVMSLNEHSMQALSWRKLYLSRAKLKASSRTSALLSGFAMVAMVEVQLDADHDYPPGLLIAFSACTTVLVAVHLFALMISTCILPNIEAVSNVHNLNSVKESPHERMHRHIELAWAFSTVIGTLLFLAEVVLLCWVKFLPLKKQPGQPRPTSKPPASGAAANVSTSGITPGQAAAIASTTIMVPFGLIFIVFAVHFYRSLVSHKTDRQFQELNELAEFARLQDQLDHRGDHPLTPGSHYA
Assay: GFP-NFAT translocation-based high-content screening (TG-stimulated HeLa cells stably expressing GFP-NFAT)
Format: cell-based
Conditions: GFP-NFAT translocation assay; read-out: IC50 on CRAC channel
Property: IC50

[
  {
    "Compound": "CCN/C(=N\\c1cc(Cl)cc(Cl)c1)S[C@H]1CC(=O)N(c2ccc(C(=O)O)cc2)C1=O",
    "Assay Target": "CRAC channel (Homo sapiens (Human), UniProt Q96D31)",
    "Endpoint Value": "~100 µM"
  },
  {
    "Compound": "CCN/C(=N\\c1cccc(C(F)(F)F)c1)S[C@H]1CC(=O)N(c2ccc(C(=O)O)cc2)C1=O",
    "Assay Target": "CRAC channel (Homo sapiens (Human), UniProt Q96D31)",
    "Endpoint Value": "~100 µM"
  },
  {
    "Compound": "COC(=O)c1ccc(N2C(=O)CC(S/C(=N\\c3ccccc3)NCCc3ccc(S(N)(=O)=O)cc3)C2=O)cc1 (stereo not drawn)",
    "Assay Target": "CRAC channel (Homo sapiens (Human), UniProt Q96D31)",
    "Endpoint Value": "8.14 µM"
  }
]

----------
# key: entry, value: pIC50
Target: CRAC channel (Homo sapiens (Human), UniProt Q96D31)
Test: GFP-NFAT translocation-based high-content screening (TG-stimulated HeLa cells stably expressing GFP-NFAT)
Format: cell-based
Details: Table 2; unit inferred; read-out: IC50 of the compounds (inhibitory activity on CRAC channel)
pIC50: −log10 of the molar value.
Property: pIC50

[
  {
    "Compound": "COC(=O)c1ccc(N2C(=O)CC(S/C(=N/c3cc(OC)ccc3OC)NCCc3ccc(S(N)(=O)=O)cc3)C2=O)cc1 (stereo not shown) [Compound 98]",
    "Endpoint Value": 4.67
  },
  {
    "Compound": "CCN/C(=N/c1ccc2c(c1)OCO2)SC1CC(=O)N(c2ccc(C(=O)OC)cc2)C1=O (stereo not shown) [Compound 66]",
    "Endpoint Value": 4.98
  },
  {
    "Compound": "COC(=O)c1ccc(N2C(=O)CC(S/C(=N\\c3ccccc3)NCc3ccc4c(c3)OCO4)C2=O)cc1 (stereo not shown) [Compound 58]",
    "Endpoint Value": "< 3.70"
  },
  {
    "Compound": "Cc1ccc(/N=C(\\NCCc2ccc(S(N)(=O)=O)cc2)SC2CC(=O)N(c3ccc(C)cc3)C2=O)cc1 (stereo not shown) [Compound 115]",
    "Endpoint Value": 5.23
  },
  {
    "Compound": "CN/C(=N/c1ccc(I)cc1)SC1CC(=O)N(c2ccc(C(=O)O)cc2)C1=O (stereo not shown) [Compound 59]",
    "Endpoint Value": "< 3.70"
  },
  {
    "Compound": "CCCCN/C(=N\\c1ccccc1)SC1CC(=O)N(c2ccc(C(=O)NC)cc2)C1=O (stereo not shown) [Compound 92]",
    "Endpoint Value": "< 3.70"
  },
  {
    "Compound": "COC(=O)c1ccc(N2C(=O)CC(S/C(=N/c3ccccc3)NC(C)C)C2=O)cc1 (stereo not shown) [Compound 79]",
    "Endpoint Value": 4.93
  },
  {
    "Compound": "CCOC(=O)c1ccc(N2C(=O)CC(S/C(=N/c3ccc(C)cc3)NCCc3ccc(S(N)(=O)=O)cc3)C2=O)cc1 (stereo not shown) [Compound 116]",
    "Endpoint Value": "< 3.70"
  },
  {
    "Compound": "CN/C(=N/c1ccc(F)cc1)SC1CC(=O)N(c2ccc(C(=O)O)cc2)C1=O (stereo not shown) [Compound 54]",
    "Endpoint Value": "< 3.70"
  },
  {
    "Compound": "CN/C(=N/c1cccc(OC)c1)SC1CC(=O)N(c2ccc(C(=O)O)cc2)C1=O (stereo not shown) [Compound 71]",
    "Endpoint Value": "< 3.70"
  },
  {
    "Compound": "COc1ccc(N2C(=O)CC(Sc3nc4ccccc4n3CCc3ccc(S(N)(=O)=O)cc3)C2=O)cc1 (stereo not shown) [Compound 118]",
    "Endpoint Value": "< 3.70"
  },
  {
    "Compound": "CCCN/C(=N\\c1ccccc1)SC1CC(=O)N(c2ccc(C(=O)NC)cc2)C1=O (stereo not shown) [Compound 91]",
    "Endpoint Value": "< 3.70"
  },
  {
    "Compound": "CCOC(=O)c1ccc(N2C(=O)CC(Sc3nc4ccccc4n3CCc3ccc(S(N)(=O)=O)cc3)C2=O)cc1 (stereo not shown) [Compound 117]",
    "Endpoint Value": "< 3.70"
  },
  {
    "Compound": "CN/C(=N/c1ccc(C)c(Cl)c1)SC1CC(=O)N(c2ccc(C(=O)O)cc2)C1=O (stereo not shown) [Compound 60]",
    "Endpoint Value": "< 3.70"
  },
  {
    "Compound": "CCOC(=O)c1ccc(N2C(=O)CC(S/C(=N/c3ccccc3)NCCc3ccc(S(N)(=O)=O)cc3)C2=O)cc1 (stereo not shown) [Compound 103]",
    "Endpoint Value": 4.80
  },
  {
    "Compound": "CCOC(=O)c1ccc(N2C(=O)CC(S/C(=N/c3ccccc3)NC)C2=O)cc1 (stereo not shown) [Compound 82]",
    "Endpoint Value": 4.65
  },
  {
    "Compound": "CCCCN/C(=N\\c1ccccc1)SC1CC(=O)N(c2ccc(C(=O)OCC)cc2)C1=O (stereo not shown) [Compound 85]",
    "Endpoint Value": "< 3.70"
  },
  {
    "Compound": "COC(=O)c1ccc(N2C(=O)CC(S/C(=N/c3ccc(OC)cc3)NCCc3ccc(S(N)(=O)=O)cc3)C2=O)cc1 (stereo not shown) [Compound 100]",
    "Endpoint Value": 4.83
  },
  {
    "Compound": "CN/C(=N/c1ccccc1)SC1CC(=O)N(c2ccc(C(=O)OC)cc2)C1=O (stereo not shown) [Compound 75]",
    "Endpoint Value": "< 3.70"
  },
  {
    "Compound": "Cc1ccc(N2C(=O)CC(Sc3nc4ccccc4n3CCc3ccc(S(N)(=O)=O)cc3)C2=O)cc1 (stereo not shown) [Compound 119]",
    "Endpoint Value": "< 3.70"
  },
  {
    "Compound": "COc1ccc(N2C(=O)CC(S/C(=N/c3ccc(C)cc3)NCCc3ccc(S(N)(=O)=O)cc3)C2=O)cc1 (stereo not shown) [Compound 105]",
    "Endpoint Value": "< 3.70"
  },
  {
    "Compound": "CNC(=O)c1ccc(N2C(=O)CC(S/C(=N/c3ccccc3)NC(C)C)C2=O)cc1 (stereo not shown) [Compound 93]",
    "Endpoint Value": "< 3.70"
  },
  {
    "Compound": "CCN/C(=N/c1cccc(F)c1)SC1CC(=O)N(c2ccc(C(=O)O)cc2)C1=O (stereo not shown) [Compound 73]",
    "Endpoint Value": "< 3.70"
  },
  {
    "Compound": "CCOC(=O)c1ccc(N2C(=O)CC(S/C(=N/c3ccccc3)NC(C)(C)C)C2=O)cc1 (stereo not shown) [Compound 88]",
    "Endpoint Value": "< 3.70"
  },
  {
    "Compound": "COC(=O)c1ccc(N2C(=O)CC(S/C(=N\\c3ccccc3)NCCc3ccc(S(N)(=O)=O)cc3)C2=O)cc1 (stereo not shown) [Compound 53]",
    "Endpoint Value": 4.89
  },
  {
    "Compound": "CN/C(=N/c1cccc(F)c1)SC1CC(=O)N(c2ccc(C(=O)O)cc2)C1=O (stereo not shown) [Compound 70]",
    "Endpoint Value": "< 3.70"
  },
  {
    "Compound": "CCN/C(=N/c1ccccc1)SC1CC(=O)N(c2ccc(C(=O)O)cc2)C1=O (stereo not shown) [Compound 61]",
    "Endpoint Value": "< 3.70"
  },
  {
    "Compound": "CCOC(=O)c1ccc(N2C(=O)CC(SCc3nnnn3-c3ccccc3)C2=O)cc1 (stereo not shown) [Compound 57]",
    "Endpoint Value": "< 3.70"
  },
  {
    "Compound": "CNC(=O)c1ccc(N2C(=O)CC(S/C(=N/c3ccccc3)NC(C)(C)C)C2=O)cc1 (stereo not shown) [Compound 95]",
    "Endpoint Value": "< 3.70"
  },
  {
    "Compound": "CCOC(=O)c1ccc(N2C(=O)CC(S/C(=N/c3ccccc3)NC(C)C)C2=O)cc1 (stereo not shown) [Compound 86]",
    "Endpoint Value": 5.20
  },
  {
    "Compound": "O=C(O)c1ccc(N2C(=O)CC(S/C(=N\\c3ccccc3)Nc3ccccc3)C2=O)cc1 (stereo not shown) [Compound 52]",
    "Endpoint Value": "< 3.70"
  }
]
